system: SNB-19 CNS; assay: NCI-60 one-dose screen, 48 h (100 = growth as untreated, 0 = no growth, -100 = all killed); conditions: 10 µM unless noted
About 83,000 compounds went through this panel and 20% of them were active in at least one assay; those are over-represented in the sample as a whole. Activity calls are given as the source filed them. The calls were made as follows: active = growth percent below 10; inactive = the rest.
Below, each entry is listed with its recorded growth.

In the examples that follow, each entry is paired with its recorded growth.
>  <compound>
CCOC(=O)c1cn2c3c(cc(C)cc3c1=O)C(=O)/C(=C/c1ccccc1)C2

>  <property measured>
growth

>  <data value>
84.4% (inactive)

$$$$
>  <compound>
CC(C)(C)OC(=O)NC(CSCc1ccccc1)C(=O)ON1C(=O)CCC1=O (stereo unspecified)

>  <property measured>
growth

>  <data value>
106% (inactive)

$$$$
>  <compound>
COc1cc(-c2nn(-c3cccc(NC(=O)Nc4ccc(Cl)c(C(F)(F)F)c4)c3)cc2-c2ccncc2)ccc1Cl

>  <property measured>
growth

>  <data value>
26.4% (inactive)

$$$$
>  <compound>
CNc1ccc(Br)c2c1C(=O)c1ccccc1C2=O

>  <property measured>
growth

>  <data value>
110% (inactive)

$$$$
>  <compound>
C=C[C@@H]1C[C@@H]2Cc3c(C)cc(C)cc3N1O2

>  <property measured>
growth

>  <data value>
113% (inactive)

$$$$

Please provide the recorded growth for C=C1CCC2C(C)(CO)C(O)CCC2(C)C1C/C=C1/C(=O)OCC1O/C=C/c1ccccc1 (stereo unspecified) , tested on SNB-19 CNS.
95.3% (inactive)

Please provide the recorded growth for COc1ccc(/C=C2\Oc3cc(OCCCN4CCCC4)ccc3C2=O)c(OC)c1 , tested on SNB-19 CNS.
74.4% (inactive)

Attribution: PubChem BioAssay (NCI)
